Every entry's value here was drawn from PubChem BioAssay (NCATS).

Measured cell viability, % of control (lower = more cytotoxic) accompanies every entry in the list below.
Assay: High-throughput drug toxicity screening in the BPDCN cell line Gen2.2 (AID 1224824);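 further: cells exposed to compounds for 48 h before reading; 100% = DMSO and 0% = bortezomib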
Conditions: Gen2.2 BPDCN cells; at 45.8 µM (top of the series) unless noted
Write down the numeric answer in % and omit the unit.

Example results:
{"COMPOUND": "CC(=O)SCC(Cc1ccccc1)C(=O)NCC(=O)OCc1ccccc1 (configuration not stated)", "MEASUREMENT": 5.18}
{"COMPOUND": "COC(=O)[C@@H]1CC2=CC(=O)CC[C@]2(C)[C@@]23O[C@@H]2C[C@@]2(C)[C@H](CC[C@@]24CCC(=O)O4)[C@@H]13", "MEASUREMENT": 132}
{"COMPOUND": "CC(N[C@H]1CCCC[C@H]1NC(=O)c1ccc(Cl)cc1)c1cccc2ccccc12 (some centres not stated)", "MEASUREMENT": 114}
{"COMPOUND": "CC(C(C)N1CC(=O)NC(=O)C1)N1CC(=O)NC(=O)C1 (configuration not stated)", "MEASUREMENT": 158}
{"COMPOUND": "C=CC(=O)Nc1cccc(Nc2nc(NC3CCC(N(C)C)CC3)nc3c2ncn3C(C)C)c1 (configuration not stated)", "MEASUREMENT": 5.58}
{"COMPOUND": "COc1cc(O)c2c(c1)C1OC1C[C@H](O)[C@H](O)C(=O)C=CC[C@H](C)OC2=O (some centres not stated)", "MEASUREMENT": 3.33}
{"COMPOUND": "O=C(NNC(=O)c1ccc(CNS(=O)(=O)c2ccc(F)c(Cl)c2)cc1)c1ccccc1", "MEASUREMENT": 143}
{"COMPOUND": "CC(C)(O)[C@H]1CC[C@@](C)([C@H]2[C@@H](O)C[C@@]3(C)[C@@H]4C[C@H](O[C@@H]5O[C@H](CO)[C@@H](O)[C@H](O)[C@@H]5O)[C@H]5C(C)(C)[C@@H](O[C@@H]6OC[C@@H](O)[C@H](O)[C@@H]6O)CC[C@@]56C[C@@]46CC[C@]23C)O1", "MEASUREMENT": 1050}

Field cell viability, % of control (lower = more cytotoxic) (entry `CCOc1cc2ncc(C#N)c(Nc3ccc(OCc4ccccn4)c(Cl)c3)c2cc1NC(=O)C=CCN(C)C` ) reads 4.27

Field cell viability, % of control (lower = more cytotoxic) (entry `c1ccc2c(Oc3nc(Nc4ccc(N5CCOCC5)cc4)c4ncn(C5CCCCC5)c4n3)cccc2c1` ) reads 187

Field cell viability, % of control (lower = more cytotoxic) (entry `C=CCNc1c(O)cc2c(O)c1C[C@@H](C)C[C@H](OC)[C@@H](O)[C@@H](C)C=C(C)[C@H](OC(N)=O)[C@@H](OC)C=CC=C(C)C(=O)N2` ) reads 5.31

Field cell viability, % of control (lower = more cytotoxic) (entry `NC(=O)c1ncn([C@@H]2O[C@H](CO)[C@@H](O)[C@@H]2O)c1N` ) reads 191

Field cell viability, % of control (lower = more cytotoxic) (entry `O=C1c2cccc(O)c2C(=O)c2c(O)cc(CO)cc21` ) reads 161

Field cell viability, % of control (lower = more cytotoxic) (entry `C[C@H]1[C@@H](OC(=O)CCC(=O)O)O[C@@H]2O[C@@]3(C)CC[C@@H]4[C@H](C)CC[C@@H]1[C@@]24OO3` ) reads 9.55

Field cell viability, % of control (lower = more cytotoxic) (entry `Cc1onc(-c2ccccc2)c1C(=O)N[C@@H]1C(=O)N2[C@@H](C(=O)O)C(C)(C)S[C@@H]12` ) reads 73.2

Field cell viability, % of control (lower = more cytotoxic) (entry `CC(C)C[C@H](NC(=O)[C@@H](NC(=O)c1cccc(-c2ccccc2)n1)[C@@H](C)O)B(O)O` ) reads 3.77

Field cell viability, % of control (lower = more cytotoxic) (entry `C[C@@H]1[C@H](C)CC[C@]2(C(=O)O)CC[C@]3(C)C(=CC[C@@H]4[C@@]5(C)C[C@@H](O)[C@H](O)[C@@](C)(CO)[C@H]5CC[C@]43C)[C@@H]12` ) reads 106

Field cell viability, % of control (lower = more cytotoxic) (entry `COc1cccc2c1C(=O)c1c(O)c3c(c(O)c1C2=O)C[C@@](O)(C(=O)CO)C[C@@H]3O[C@H]1C[C@H](N)[C@@H](O)[C@H](C)O1` ) reads 8.09

Field cell viability, % of control (lower = more cytotoxic) (entry COc1cc(C)c(Sc2cnc(NC(=O)c3ccc(CNC(C)C(C)(C)C)cc3)s2)cc1C(=O)N1CCN(C(C)=O)CC1 (configuration not stated) ) reads 4.37

----------
Test: Quantitative High-Throughput drug screen in 47 multiple myeloma cell lines against the NCATS MIPE library collection: Karpas417_ECACC cell viability assay (AID 1918961)
Conditions: Karpas417 myeloma viability, CellTiter-Glo ATP luminescence, 48 h
Results filed as inconclusive are left out. The source made the active and inactive calls. Calls follow the shape of the dose curve; as a rule, active = well fitted cell-killing curve with a large enough effect; inconclusive = small, poorly fitted or top-dose-only effect, or effect the other way; inactive = no such curve, though single readings can be large or run the other way.
Field 'call' accepts active, inactive

These solved cases illustrate the format of a correct answer.
{"SMILES STRING": "NC(=O)Nc1sc(-c2ccc(F)cc2)cc1C(N)=O", "ASSIGNED LABEL": "active"}
{"SMILES STRING": "CC[C@H]1OC(=O)[C@H](C)[C@@H](O[C@H]2C[C@@](C)(OC)[C@@H](O)[C@H](C)O2)[C@H](C)[C@@H](O[C@@H]2O[C@H](C)C[C@H](N(C)C)[C@@H]2O)[C@](C)(OC)C[C@@H](C)C(=O)[C@H](C)[C@@H](O)[C@]1(C)O", "ASSIGNED LABEL": "inactive"}
{"SMILES STRING": "O=C(C=Cc1ccc(CN(CCO)CCc2c[nH]c3ccccc23)cc1)NO", "ASSIGNED LABEL": "active"}
{"SMILES STRING": "CCNC(=O)Nc1ccc(-c2nc3c(c(N4CCOC[C@H]4C)n2)CCN(C2COC2)C3)cc1", "ASSIGNED LABEL": "active"}
{"SMILES STRING": "CC(C)N(CC[C@H](c1ccccc1)c1cc(CO)ccc1O)C(C)C", "ASSIGNED LABEL": "inactive"}

// outcome(item) with item = `Cn1cc(C=CC(=O)c2cccc(F)c2)cc1C=CC(=O)NO`
active

// outcome(item) with item = `O=C(CN1C(=O)C2(CCCC2)NC[C@H]1c1cc(F)cc(F)c1)Nc1ccc2c(c1)C[C@@]1(C2)C(=O)Nc2ncccc21`
inactive

// outcome(item) with item = `COc1ccc(S(=O)(=O)Nc2cc(-c3c(O)ccc4ccccc34)c(O)c3ccccc23)cc1`
active

// outcome(item) with item = `CCOC(=O)[C@@H](N)Cc1ccc(-c2cc(O[C@H](c3ccc(Cl)cc3-n3ccc(C)n3)C(F)(F)F)nc(N)n2)cc1`
active

----------
Assay: Quantitative High-Throughput drug screen in 47 multiple myeloma cell lines against the NCATS MIPE library collection: ARD_JJKsccE7 cell viability assay (AID 1918929;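 on viability: 100% = DMSO-only wells and 0% = media-only wells without cells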)
Conditions: ARD myeloma cell line viability, CellTiter-Glo, 48 h; series mostly up to 45.8 µM
Records with an inconclusive call do not appear. Calls of active or inactive are those of the source. Calls follow the shape of the dose curve; as a rule, active = well fitted cell-killing curve with a large enough effect; inconclusive = small, poorly fitted or top-dose-only effect, or effect the other way; inactive = no such curve, though single readings can be large or run the other way.
Field 'call' accepts active, inactive

{"MOLECULE": "COC1=C(OC)C(=O)C(CC=C(C)CCC=C(C)CCC=C(C)CCC=C(C)CCC=C(C)CCC=C(C)CCC=C(C)CCC=C(C)CCC=C(C)CCC=C(C)C)=C(C)C1=O", "ASSIGNED LABEL": "inactive"}
{"MOLECULE": "CC[C@H]1OC(=O)[C@H](C)[C@@H](O[C@H]2C[C@@](C)(OC)[C@@H](O)[C@H](C)O2)[C@H](C)[C@@H](O[C@@H]2O[C@@H](C)C[C@H](N(C)C)[C@@H]2O)[C@](C)(O)C[C@@H](C)C(=O)[C@H](C)[C@@H](O)[C@]1(C)O", "ASSIGNED LABEL": "inactive"}
{"MOLECULE": "CC(C)(O)CC[C@@H](O)[C@](C)(O)[C@H]1CC[C@@]2(O)C3=CC(=O)[C@@H]4C[C@@H](O)[C@@H](O)C[C@]4(C)[C@@H]3CC[C@]12C", "ASSIGNED LABEL": "inactive"}

// outcome(item) with item = `CC(C)Oc1ccc(C(=O)N[C@H](CNC(=O)CN(C)C)Cc2ccc(-c3cn4cccc([C@H](C)O)c4n3)cc2)cc1Cl`
active

// outcome(item) with item = `C=CCNc1c(O)cc2c(O)c1C[C@@H](C)C[C@H](OC)[C@@H](O)[C@@H](C)C=C(C)[C@H](OC(N)=O)[C@@H](OC)C=CC=C(C)C(=O)N2`
active

// outcome(item) with item = `CC(=O)OC[C@@H]1O[C@@H](n2ccc(=O)[nH]c2=O)[C@H](OC(C)=O)[C@H]1OC(C)=O`
inactive

// outcome(item) with item = `Nc1nc(N)c2nc(-c3cccc(O)c3)c(-c3cccc(O)c3)nc2n1`
active

// outcome(item) with item = COc1cc2c(cc1O)CCC1C2CC[C@@]2(C)C1CC[C@@H]2O (some centres undefined)
inactive
